Cited source: paper PMC6968643

# VEGFR-2 (Homo sapiens): IC50 values follow
# Sequence (P35968 20-1356): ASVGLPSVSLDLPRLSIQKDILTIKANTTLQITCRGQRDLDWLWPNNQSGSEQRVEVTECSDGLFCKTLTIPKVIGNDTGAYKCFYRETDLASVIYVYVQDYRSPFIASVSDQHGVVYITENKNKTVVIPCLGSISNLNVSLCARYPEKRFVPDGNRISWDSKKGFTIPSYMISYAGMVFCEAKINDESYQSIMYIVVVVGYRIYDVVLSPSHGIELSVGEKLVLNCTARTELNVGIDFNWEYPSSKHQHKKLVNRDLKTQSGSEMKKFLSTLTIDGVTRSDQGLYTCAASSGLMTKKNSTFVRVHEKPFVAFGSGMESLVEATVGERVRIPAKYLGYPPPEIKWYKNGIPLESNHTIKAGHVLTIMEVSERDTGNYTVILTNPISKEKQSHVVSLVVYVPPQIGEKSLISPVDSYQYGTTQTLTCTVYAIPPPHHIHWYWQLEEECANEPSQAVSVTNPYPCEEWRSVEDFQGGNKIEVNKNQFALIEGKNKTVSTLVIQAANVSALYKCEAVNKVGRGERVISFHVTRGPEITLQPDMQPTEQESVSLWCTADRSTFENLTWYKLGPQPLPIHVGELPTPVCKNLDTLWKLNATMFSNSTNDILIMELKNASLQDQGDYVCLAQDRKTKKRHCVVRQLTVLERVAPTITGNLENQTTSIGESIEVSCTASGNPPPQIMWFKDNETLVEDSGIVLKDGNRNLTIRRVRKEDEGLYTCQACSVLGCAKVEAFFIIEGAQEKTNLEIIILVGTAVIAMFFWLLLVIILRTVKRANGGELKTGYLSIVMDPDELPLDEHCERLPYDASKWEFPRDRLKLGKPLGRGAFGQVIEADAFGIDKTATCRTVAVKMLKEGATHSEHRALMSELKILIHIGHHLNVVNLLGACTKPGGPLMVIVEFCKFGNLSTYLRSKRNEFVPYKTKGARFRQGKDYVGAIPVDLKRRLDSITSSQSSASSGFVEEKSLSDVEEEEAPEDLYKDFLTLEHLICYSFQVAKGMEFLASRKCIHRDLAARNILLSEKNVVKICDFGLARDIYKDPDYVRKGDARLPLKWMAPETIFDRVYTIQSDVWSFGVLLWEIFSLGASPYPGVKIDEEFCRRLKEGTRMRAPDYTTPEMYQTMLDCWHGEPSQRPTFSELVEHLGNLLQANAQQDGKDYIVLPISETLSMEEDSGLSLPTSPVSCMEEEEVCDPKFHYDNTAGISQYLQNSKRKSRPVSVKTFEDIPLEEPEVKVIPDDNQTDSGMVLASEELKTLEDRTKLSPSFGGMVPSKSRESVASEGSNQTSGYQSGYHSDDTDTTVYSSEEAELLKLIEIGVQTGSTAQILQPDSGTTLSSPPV
Respond numerically; units are nM and should not be typed.

Check out these entries, answers already filled in.
Compound: CC(=O)Nc1cccc(-c2cn(CC(=O)N/N=C/c3cc(Cl)ccc3O)nn2)c1 [Compound 10f]
IC50 / nM: 139

Compound: O=C(Cn1cc(-c2ccccc2)nn1)N/N=C/c1cccc(Cl)c1 [Compound 11b]
IC50 / nM: 25.3

Compound: COc1ccc(/C=N/NC(=O)Cn2cc(-c3ccccc3)nn2)c(OC)c1 [Compound 11i]
IC50 / nM: 849

# evaluate next
Prompt: Fill in the blank: the reported IC50 of O=C(Cn1cc(-c2ccccc2)nn1)N/N=C/c1cc(Cl)ccc1O [Compound 11f] is ____.
Completion: 9860
